Attribution: patent US20210261512A1

# Tested on: UniProt:Q96P20
# Protocol text: Human whole blood IL1β release assay
# Assay type: cell-based
# Condition description: LPS 1 μg/ml, nigericin 10 μM, IL-1β AlphaLisa, 10 μM top dose (Example 2: top dose of 30 μM), read-out: HWB IC50
pIC50: −log10 of the molar value.
Collected pIC50 values appear next to each entry.

{"Compound": "[2H]C([2H])([2H])Oc1cc(-c2ccc3c(c2Nc2nnc(S(=O)(=O)N4CC[C@H](C(C)(C)O)C4)[nH]2)CCC3)ccn1", "pIC50": "≥ 5.30"}
{"Compound": "NS(=O)(=O)c1ccccc1S(=O)(=O)c1nnc(Nc2c3c(cc4c2CCC4)CCC3)[nH]1", "pIC50": "≥ 5.00"}
{"Compound": "CC(C)(O)[C@H]1CCN(S(=O)(=O)c2nnc(Nc3c4c(cc5c3CCC5)CCC4)[nH]2)C1", "pIC50": "≥ 5.30"}
{"Compound": "COc1cc(-c2ccc3c(c2Nc2nnc(S(=O)(=O)N4CCC5(CCCN5C)CC4)[nH]2)CCC3)ccn1", "pIC50": "≥ 6.00"}
{"Compound": "O=S(=O)(c1nnc(Nc2c3c(cc4c2CCC4)CCC3)[nH]1)N1CC(N2CCCCC2)C1", "pIC50": "≥ 5.00"}
{"Compound": "CC(C)(O)[C@@H]1CCN(S(=O)(=O)c2nnc(Nc3c4c(cc5c3CCC5)CCC4)[nH]2)C1", "pIC50": "≥ 5.00"}
{"Compound": "CN(C)C1CCN(S(=O)(=O)c2nnc(Nc3c4c(cc5c3CCC5)CCC4)[nH]2)C1 (stereo not drawn)", "pIC50": "≥ 5.30"}
{"Compound": "O=S(=O)(c1nnc(Nc2c3c(cc4c2CCC4)CCC3)[nH]1)N1CCCC1", "pIC50": "≥ 5.00"}
{"Compound": "COc1cc(-c2cc(F)cc(C3CC3)c2Nc2nnc(S(=O)(=O)N3CCC(N(C)C)CC3)[nH]2)ccn1", "pIC50": "≥ 5.30"}

###

# Tested on: NLRP3 (Homo sapiens, UniProt Q96P20)
# Sequence (Q96P20 whole entry): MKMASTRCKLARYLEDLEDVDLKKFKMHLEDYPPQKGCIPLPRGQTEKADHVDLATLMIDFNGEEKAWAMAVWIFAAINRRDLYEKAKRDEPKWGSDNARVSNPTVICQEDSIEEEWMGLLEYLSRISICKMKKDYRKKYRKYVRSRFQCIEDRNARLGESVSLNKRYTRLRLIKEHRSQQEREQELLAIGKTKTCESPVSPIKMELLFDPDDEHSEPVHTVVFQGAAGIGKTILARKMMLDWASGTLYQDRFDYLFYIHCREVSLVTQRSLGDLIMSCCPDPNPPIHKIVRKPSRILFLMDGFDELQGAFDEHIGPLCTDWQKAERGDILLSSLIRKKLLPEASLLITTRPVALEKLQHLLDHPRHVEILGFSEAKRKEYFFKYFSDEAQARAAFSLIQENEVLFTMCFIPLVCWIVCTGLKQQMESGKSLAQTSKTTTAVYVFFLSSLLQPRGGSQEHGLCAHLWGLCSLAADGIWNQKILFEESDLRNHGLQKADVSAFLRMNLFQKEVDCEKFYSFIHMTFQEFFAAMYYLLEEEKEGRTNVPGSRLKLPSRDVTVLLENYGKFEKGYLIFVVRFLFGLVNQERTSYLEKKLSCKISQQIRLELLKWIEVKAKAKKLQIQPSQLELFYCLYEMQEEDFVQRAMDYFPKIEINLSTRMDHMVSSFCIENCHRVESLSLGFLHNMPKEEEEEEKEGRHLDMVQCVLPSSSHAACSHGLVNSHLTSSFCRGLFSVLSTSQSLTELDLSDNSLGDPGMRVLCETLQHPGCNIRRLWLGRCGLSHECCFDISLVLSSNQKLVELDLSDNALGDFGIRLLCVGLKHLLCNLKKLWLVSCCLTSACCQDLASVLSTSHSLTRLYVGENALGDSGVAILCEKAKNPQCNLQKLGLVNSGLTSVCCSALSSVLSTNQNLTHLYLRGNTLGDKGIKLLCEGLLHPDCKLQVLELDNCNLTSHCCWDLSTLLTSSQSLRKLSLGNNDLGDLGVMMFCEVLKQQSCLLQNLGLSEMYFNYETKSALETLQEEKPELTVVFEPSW
# Protocol text: THP-1 cells pyroptosis assay
# Assay type: cell-based
# Design: Seed THP-1 cells (25,000 cells/well) containing 1.0 μg/ml LPS; host or cells: THP-1
# Condition description: LPS 1.0 μg/ml, nigericin 5 μM, resazurin readout, 10 μM top dose (Example 2: top dose of 30 μM)
Collected IC50 values appear next to each entry.

{"Compound": "O=S(=O)(c1nnc(Nc2c3c(cc4c2CCC4)CCC3)[nH]1)N1CC2(CCOCC2)C1 [Example 145]", "IC50": "≤ 1 µM"}
{"Compound": "CC(=O)NCCNS(=O)(=O)c1nnc(Nc2c3c(cc4c2CCC4)CCC3)[nH]1 [Example 115]", "IC50": "≤ 5 µM"}
{"Compound": "CC(C)c1cc(F)cc(C(C)C)c1Nc1nnc(S(=O)(=O)c2ccccc2)[nH]1 [Example 42]", "IC50": "≤ 10 µM"}
{"Compound": "[2H]C([2H])([2H])Oc1cc(-c2ccc3c(c2Nc2nnc(S(=O)(=O)N4CCC(N(C)C)CC4)[nH]2)CCC3)ccn1 [Example 227]", "IC50": "≤ 0.5 µM"}
{"Compound": "CN(C)C(=O)Cn1cc(S(=O)(=O)c2nnc(Nc3c4c(cc5c3CCC5)CCC4)[nH]2)cn1 [Example 348]", "IC50": "≤ 5 µM"}
{"Compound": "Cc1noc(CS(=O)(=O)c2nnc(Nc3c4c(cc5c3CCC5)CCC4)[nH]2)n1 [Example 70]", "IC50": "≤ 5 µM"}

###

# Tested on: NLRP3 (Homo sapiens, UniProt Q96P20)
# Protocol text: THP-1 cells pyroptosis assay
# Assay type: cell-based
# Design: Seed THP-1 cells (25,000 cells/well) containing 1.0 μg/ml LPS; host or cells: THP-1
# Condition description: LPS 1.0 μg/ml, nigericin 5 μM, resazurin readout, 10 μM top dose (Example 2: top dose of 30 μM)
Collected IC50 values appear next to each entry.

{"Compound": "O=S(=O)(c1ccncc1)c1nnc(Nc2c3c(cc4c2CCC4)CCC3)[nH]1 [Example 171]", "IC50": "≤ 5 µM"}
{"Compound": "NS(=O)(=O)c1ccc(S(=O)(=O)c2nnc(Nc3c4c(cc5c3CCC5)CCC4)[nH]2)cc1 [Example 366]", "IC50": "≤ 0.5 µM"}
{"Compound": "CC(C)c1cc(F)cc(-c2ccncc2)c1Oc1nnc(S(=O)(=O)N2CCC(CN(C)C)C2)[nH]1 (stereo not drawn) [Example 152]", "IC50": "≤ 5 µM"}

###

# Tested on: NLRP3 (Homo sapiens, UniProt Q96P20)
# Protocol text: THP-1 cells pyroptosis assay
# Format: cell-based
# Design: Seed THP-1 cells (25,000 cells/well) containing 1.0 μg/ml LPS; host or cells: THP-1
# Condition description: LPS 1.0 μg/ml, nigericin 5 μM, resazurin readout, 10 μM top dose (Example 2: top dose of 30 μM)
pIC50: −log10 of the molar value.
Collected pIC50 values appear next to each entry.

{"Compound": "O=S(=O)(c1ccnnc1)c1n[nH]c(Nc2c3c(cc4c2CCC4)CCC3)n1", "Tested on": "NLRP3 (Homo sapiens, UniProt Q96P20)", "pIC50": "≥ 5.30"}
{"Compound": "COc1cc(-c2ccc3c(c2Nc2nnc(S(=O)(=O)c4ccccc4)[nH]2)CCC3)ccn1", "Tested on": "NLRP3 (Homo sapiens, UniProt Q96P20)", "pIC50": "≥ 5.30"}
{"Compound": "Cn1ccc(S(=O)(=O)c2nnc(Nc3c4c(cc5c3CCC5)CCC4)[nH]2)n1", "Tested on": "NLRP3 (Homo sapiens, UniProt Q96P20)", "pIC50": "≥ 6.00"}
{"Compound": "O=C1CCCN1CCNS(=O)(=O)c1nnc(Nc2c3c(cc4c2CCC4)CCC3)[nH]1", "Tested on": "NLRP3 (Homo sapiens, UniProt Q96P20)", "pIC50": "≥ 5.30"}
{"Compound": "CC(C)(O)C1CN(S(=O)(=O)c2nnc(Nc3c4c(cc5c3CCC5)CCC4)[nH]2)C1", "Tested on": "NLRP3 (Homo sapiens, UniProt Q96P20)", "pIC50": "≥ 5.30"}
{"Compound": "CN(C)C1CCN(S(=O)(=O)c2nnc(Nc3c(-c4ccnn4C)ccc4c3CCC4)[nH]2)CC1", "Tested on": "NLRP3 (Homo sapiens, UniProt Q96P20)", "pIC50": "≥ 5.00"}
{"Compound": "COc1cc(-c2cc(C#N)c3c(c2Nc2nnc(S(=O)(=O)c4ccccc4)[nH]2)CCC3)ccn1", "Tested on": "NLRP3 (Homo sapiens, UniProt Q96P20)", "pIC50": "≥ 6.00"}
{"Compound": "O=S(=O)(c1nnc(Nc2c3c(cc4c2CCC4)CCC3)[nH]1)N1CCC(N2CCCC2)C1 (stereo not shown)", "Tested on": "NLRP3 (Homo sapiens, UniProt Q96P20)", "pIC50": "≥ 6.30"}
{"Compound": "CC(C)c1cc(F)cc(-c2ccncc2)c1Cc1nnc(S(=O)(=O)N2CCC(CN(C)C)C2)[nH]1 (stereo not shown)", "Tested on": "NLRP3 (Homo sapiens, UniProt Q96P20)", "pIC50": "≥ 6.30"}
{"Compound": "Cn1cc(S(=O)(=O)c2nnc(Nc3c4c(cc5c3CCC5)CCC4)[nH]2)cn1", "Tested on": "NLRP3 (Homo sapiens, UniProt Q96P20)", "pIC50": "≥ 5.30"}
{"Compound": "CN1CC(CNS(=O)(=O)c2nnc(Nc3c4c(cc5c3CCC5)CCC4)[nH]2)C1", "Tested on": "NLRP3 (Homo sapiens, UniProt Q96P20)", "pIC50": "≥ 5.30"}
{"Compound": "CN(C)CCN(C)CCCS(=O)(=O)c1nnc(Nc2c3c(cc4c2CCC4)CCC3)[nH]1", "Tested on": "NLRP3 (Homo sapiens, UniProt Q96P20)", "pIC50": "≥ 5.30"}
{"Compound": "O=S(=O)(NCCN1CCC1)c1nnc(Nc2c3c(cc4c2CCC4)CCC3)[nH]1", "Tested on": "NLRP3 (Homo sapiens, UniProt Q96P20)", "pIC50": "≥ 6.00"}

###

# Tested on: NLRP3 (Homo sapiens)
# Protocol text: Human whole blood IL1β release assay
# Type: cell-based
# Condition description: LPS 1 μg/ml, nigericin 10 μM, IL-1β AlphaLisa, 10 μM top dose (Example 2: top dose of 30 μM), read-out: HWB IC50
pIC50: −log10 of the molar value.
Quantity: pIC50

{"Compound": "CCNC[C@H]1CCN(S(=O)(=O)c2nnc(Nc3c4c(cc5c3CCC5)CCC4)[nH]2)C1", "Data value": "≥ 5.30"}
{"Compound": "CN(C)CC1CN(S(=O)(=O)c2nnc(Nc3c4c(cc5c3CCC5)CCC4)[nH]2)C1", "Data value": "≥ 6.30"}
{"Compound": "CN1CCC(N(C)S(=O)(=O)c2nnc(Nc3c4c(cc5c3CCC5)CCC4)[nH]2)C1 (stereo not drawn)", "Data value": "≥ 6.00"}
{"Compound": "COc1cc(-c2c(C)cc3c(c2Nc2nnc(S(=O)(=O)c4ccccc4)[nH]2)CCC3)ccn1", "Data value": "≥ 5.00"}
{"Compound": "CN(C)CCCNS(=O)(=O)c1nnc(Nc2c3c(cc4c2CCC4)CCC3)[nH]1", "Data value": "≥ 5.30"}
{"Compound": "COc1cc(-c2cc(C#N)c3c(c2Nc2nnc(S(=O)(=O)c4ccccc4)[nH]2)CCC3)ccn1", "Data value": "≥ 5.30"}
